# ASSAY TEXT: Stability of the ginsenosides in rat plasma (QC samples)
# Type: in vitro ADME
# MEASUREMENT SETUP: rat plasma, high QC (911.4 Rb1, 400.0 Rb2, 312.2 Rd, 630.8 Re ng/mL); 1 month at −80°C
Reported Re (%) Short term values for a set of molecules
A number alone suffices; assume %.

Here's what some known entries look like.
CC(C)=CCC[C@](C)(O[C@@H]1O[C@H](CO)[C@@H](O)[C@H](O)[C@H]1O)[C@H]1CC[C@]2(C)[C@@H]1[C@H](O)C[C@@H]1[C@@]3(C)CC[C@H](O)C(C)(C)[C@@H]3[C@@H](O[C@@H]3O[C@H](CO)[C@@H](O)[C@H](O)[C@H]3O[C@@H]3O[C@@H](C)[C@H](O)[C@@H](O)[C@H]3O)C[C@]12C [Re] = 8.40
CC(C)=CCC[C@](C)(O[C@@H]1O[C@H](CO)[C@@H](O)[C@H](O)[C@H]1O)[C@H]1CC[C@]2(C)[C@@H]1[C@H](O)C[C@@H]1[C@@]3(C)CC[C@H](O[C@@H]4O[C@H](CO)[C@@H](O)[C@H](O)[C@H]4O[C@@H]4O[C@H](CO)[C@@H](O)[C@H](O)[C@H]4O)C(C)(C)[C@@H]3CC[C@]12C [Rd] = 7.35

[ask] # Re (%) Short term lookup, item CC(C)=CCC[C@](C)(O[C@@H]1O[C@H](CO[C@@H]2OC[C@H](O)[C@H](O)[C@H]2O)[C@@H](O)[C@H](O)[C@H]1O)[C@H]1CC[C@]2(C)[C@@H]1[C@H](O)C[C@@H]1[C@@]3(C)CC[C@H](O[C@@H]4O[C@H](CO)[C@@H](O)[C@H](O)[C@H]4O[C@@H]4O[C@H](CO)[C@@H](O)[C@H](O)[C@H]4O)C(C)(C)[C@@H]3CC[C@]12C [Rb2]
[reply] 7.11

[ask] Also CC(C)=CCC[C@](C)(O[C@@H]1O[C@H](CO[C@@H]2O[C@H](CO)[C@@H](O)[C@H](O)[C@H]2O)[C@@H](O)[C@H](O)[C@H]1O)[C@H]1CC[C@]2(C)[C@@H]1[C@H](O)C[C@@H]1[C@@]3(C)CC[C@H](O[C@@H]4O[C@H](CO)[C@@H](O)[C@H](O)[C@H]4O[C@@H]4O[C@H](CO)[C@@H](O)[C@H](O)[C@H]4O)C(C)(C)[C@@H]3CC[C@]12C [Rb1] , if possible.
[reply] 7.53
